In this section we review reported Kd values for a set of binders.
# experimental_system: T1, PNPase carrying a C-terminal Hisx6 tag (E. coli polynucleotide phosphorylase) (E. coli, UniProt P05055 1-711)
# T1 construct: polynucleotide phosphorylase (PNPase), E. coli; Immobilised through the His tag on an NTA chip for SPR; also called PNPase C-His; PNPase with a 6xHisTag at the CTD; source: E. coli Evo21(DE3), purified (Ni-NTA, butyl-Sepharose HIC, Q, Superdex S200); not shown: His6, C-terminal, kept
# T1 sequence (looked up): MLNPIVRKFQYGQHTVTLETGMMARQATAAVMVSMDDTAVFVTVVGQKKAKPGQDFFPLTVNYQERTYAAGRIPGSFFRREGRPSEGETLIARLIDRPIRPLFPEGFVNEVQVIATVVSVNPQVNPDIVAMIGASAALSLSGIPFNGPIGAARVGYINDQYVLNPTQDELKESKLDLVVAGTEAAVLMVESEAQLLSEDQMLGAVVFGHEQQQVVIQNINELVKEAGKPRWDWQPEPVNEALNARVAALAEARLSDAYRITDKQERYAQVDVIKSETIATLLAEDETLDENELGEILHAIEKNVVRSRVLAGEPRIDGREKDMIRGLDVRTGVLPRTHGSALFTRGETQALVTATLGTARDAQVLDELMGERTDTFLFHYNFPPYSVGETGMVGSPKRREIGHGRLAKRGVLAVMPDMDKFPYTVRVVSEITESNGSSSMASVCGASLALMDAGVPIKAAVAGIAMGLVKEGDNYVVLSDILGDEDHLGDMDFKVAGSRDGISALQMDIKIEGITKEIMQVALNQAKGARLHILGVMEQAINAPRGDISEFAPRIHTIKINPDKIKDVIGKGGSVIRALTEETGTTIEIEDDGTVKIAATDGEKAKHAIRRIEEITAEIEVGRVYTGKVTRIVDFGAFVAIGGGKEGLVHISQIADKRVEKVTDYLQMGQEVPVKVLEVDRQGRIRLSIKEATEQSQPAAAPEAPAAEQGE
# procedure_text: SPR; PNPase with C-terminal His6 tag immobilised on Series S Sensor Chip NTA (5 RU); Biacore T200, 25°C; 20 mM HEPES pH 7.2, 150 mM NaCl, 5 mM MgCl2, 0.5 mM TCEP, 0.05% Tween 20; six peptide concentrations up to 9000 nM (up to 5000 nM for RNase E 985–1061); contact 60 s, dissociation 120 s
# setup_conditions: both partners purified

RNase E 985-1061 (domain or fragment, E. coli, UniProt P21513 985-1061, looked up, source: E. coli Evo21(DE3), pMxe vector, purified (Ni-NTA, amylose, TEV, Q, Superdex 75); not shown: His6, N-terminal, cleaved; MBP, N-terminal, cleaved; intein, C-terminal, cleaved) VAAEVETVAAVEPEVTVEHNHATAPMTRAPAPEYVPEAPRHSDWQRPTFAFEGKGAAGGHTATHHASAAPARPQPVE	0.00402 µM
RNase E 985-1053 (domain or fragment, E. coli, UniProt P21513 985-1053, looked up, the SPR methods name a peptide 960–1053; Lacks the terminal Pro-rich motif; Limits differ between results (985–1053) and methods (960–1053); also called RNase E peptide 985–1053; RNase E 960–1053 (methods); source: E. coli Evo21(DE3), pMxe vector, purified (Ni-NTA, amylose, TEV, Q, Superdex 75); not shown: His6, N-terminal, cleaved; MBP, N-terminal, cleaved; intein, C-terminal, cleaved) VAAEVETVAAVEPEVTVEHNHATAPMTRAPAPEYVPEAPRHSDWQRPTFAFEGKGAAGGHTATHHASAA	11.5 µM

Data request, read-out Kd, for GAAGGHTATHHASAAPARPQPVE (peptide, UniProt P21513 1039-1061, looked up, source: E. coli Evo21(DE3), pMxe vector, purified (Ni-NTA, amylose, TEV, Q, Superdex 75); not shown: His6, N-terminal, cleaved; MBP, N-terminal, cleaved; intein, C-terminal, cleaved) [RNase E 1039-1061]
5.92 µM
